- tested on: ScHse1
- test details: SPOT peptide array binding signal intensity (averaged, normalized) (arbitrary units (background-subtracted, floor 0; scale differs between SH3 domains)); higher = stronger binding of the SH3 domain to the peptide
Overview of reported SPOT peptide array binding signal intensity across a group of binders:
reported metric: SPOT peptide array binding signal intensity

# binder, value operator, numeric readout
measured = [
    ("GTIARPLFLVVLFFI", "=", 472),
    ("GKKVRPLLVLLLSRA", "=", 1540),
    ("FTLPPPPPPPGLDEL", "≤", 0),
    ("MFLISPPASPPPEFD", "≤", 0),
    ("KWVRRPKLMTPLTFS", "=", 1650),
    ("GLRRARYKFPGQQKI", "=", 854),
    ("LTRRFPFLFPFDTRM", "=", 1600),
    ("AATTSTPPLPRRRAT", "=", 70),
    ("QHQQRQPKRPKRYSL", "=", 409),
    ("PPIPNAPLSPAPAVP", "=", 1.5),
    ("KKIRLIFTYPSTVGR", "=", 1750),
    ("VQPTAAPATPPRHIS", "≤", 0),
    ("NENKKLPPAPTVFGL", "=", 6.5),
    ("KDKKTKPTPPPKPSH", "=", 38),
    ("RLSRLLLSLPPESFT", "=", 1930),
]
